# Test system: Human immunodeficiency virus 1
# ASSAY PROTOCOL: Antiviral activity against multidrug-resistant HIV1 isolate G infected in PHA-stimulated human PBMC assessed as inhibition of p24 […] protein production
# Assay type: functional, organism-based
# CONDITION SUMMARY: Human immunodeficiency virus 1, isolate G
Reported IC50 by item:
ASSAY METRIC: IC50 (nM)

1) CC(C)(C)NC(=O)[C@@H]1CN(Cc2cccnc2)CCN1C[C@@H](O)C[C@@H](Cc1ccccc1)C(=O)N[C@H]1c2ccccc2C[C@H]1O.O	340
2) CC(C)CN(C[C@@H](O)[C@H](Cc1ccccc1)NC(=O)O[C@H]1CCOC1)S(=O)(=O)c1ccc(N)cc1	430
3) Cc1cccc(C)c1OCC(=O)N[C@@H](Cc1ccccc1)[C@@H](O)C[C@H](Cc1ccccc1)NC(=O)[C@H](C(C)C)N1CCCNC1=O	260
4) CC(C)(C)NC(=O)[C@@H]1C[C@@H]2CCCC[C@@H]2CN1C[C@@H](O)[C@H](Cc1ccccc1)NC(=O)[C@H](CC(N)=O)NC(=O)c1ccc2ccccc2n1	30

----------
# Tested on: Human immunodeficiency virus 1
# ASSAY PROTOCOL: Antiviral activity against HIV1 LAI infected in human MT2 cells by MTT assay
# Assay type: functional, organism-based
# CONDITION SUMMARY: Human immunodeficiency virus 1, M:B_Lai
With a cut-off of 20 nM, any IC50 strictly below it is called Y; any IC50 meeting it or above is called N.

1. C=CCCCCOc1cc(OC)ccc1S(=O)(=O)N(CC=C)C[C@@H](O)[C@H](Cc1ccccc1)NC(=O)O[C@H]1CO[C@H]2OCC[C@H]21	N
2. COc1ccc2c(c1)OCCCCCCN(C[C@@H](O)[C@H](Cc1ccccc1)NC(=O)O[C@H]1CO[C@H]3OCC[C@H]31)S2(=O)=O	N
3. C=CCCCCOc1cc(OC)ccc1S(=O)(=O)N(CCCCC=C)C[C@@H](O)[C@H](Cc1ccccc1)NC(=O)O[C@H]1CO[C@H]2OCC[C@H]21	N
4. C=CCCCCOc1cc(OC)ccc1S(=O)(=O)N(C[C@@H](C)CC=C)C[C@@H](O)[C@H](Cc1ccccc1)NC(=O)O[C@H]1CO[C@H]2OCC[C@H]21	N
5. COc1ccc2c(c1)OCCCCCCCCCN(C[C@@H](O)[C@H](Cc1ccccc1)NC(=O)O[C@H]1CO[C@H]3OCC[C@H]31)S2(=O)=O	N
6. C=CCCCCN(C[C@@H](O)[C@H](Cc1ccccc1)NC(=O)O[C@H]1CO[C@H]2OCC[C@H]21)S(=O)(=O)c1ccc(OC)cc1OCCCC=C	N
7. COc1ccc2c(c1)OCCCCCCC[C@@H](C)CN(C[C@@H](O)[C@H](Cc1ccccc1)NC(=O)O[C@H]1CO[C@H]3OCC[C@H]31)S2(=O)=O	N
8. COc1ccc2c(c1)OCCCCCCCN(C[C@@H](O)[C@H](Cc1ccccc1)NC(=O)O[C@H]1CO[C@H]3OCC[C@H]31)S2(=O)=O	Y
9. COc1ccc2c(c1)OCCCCCN(C[C@@H](O)[C@H](Cc1ccccc1)NC(=O)O[C@H]1CO[C@H]3OCC[C@H]31)S2(=O)=O	Y
10. COc1ccc2c(c1)OCCC/C=C/CC[C@H](C)CN(C[C@@H](O)[C@H](Cc1ccccc1)NC(=O)O[C@H]1CO[C@H]3OCC[C@H]31)S2(=O)=O	N
11. COc1ccc2c(c1)OCCCCCCCC(C)(C)CN(C[C@@H](O)[C@H](Cc1ccccc1)NC(=O)O[C@H]1CO[C@H]3OCC[C@H]31)S2(=O)=O	N
12. COc1ccc2c(c1)OC/C=C\CCCCN(C[C@@H](O)[C@H](Cc1ccccc1)NC(=O)O[C@H]1CO[C@H]3OCC[C@H]31)S2(=O)=O	Y
13. COc1ccc(S(=O)(=O)N(CC(C)C)C[C@@H](O)[C@H](Cc2ccccc2)NC(=O)O[C@H]2CO[C@H]3OCC[C@H]32)cc1	Y
14. COc1ccc2c(c1)OCCCCCCC[C@H](C)CN(C[C@@H](O)[C@H](Cc1ccccc1)NC(=O)O[C@H]1CO[C@H]3OCC[C@H]31)S2(=O)=O	N
15. C=CCCCCOc1cc(OC)ccc1S(=O)(=O)N(C[C@@H](O)[C@H](Cc1ccccc1)NC(=O)O[C@H]1CO[C@H]2OCC[C@H]21)CC(C)(C)CC=C	N
16. COc1ccc2c(c1)OCCCCCCCCN(C[C@@H](O)[C@H](Cc1ccccc1)NC(=O)O[C@H]1CO[C@H]3OCC[C@H]31)S2(=O)=O	N
17. COc1ccc2c(c1)OCCCC/C=C\CN(C[C@@H](O)[C@H](Cc1ccccc1)NC(=O)O[C@H]1CO[C@H]3OCC[C@H]31)S2(=O)=O	N
18. COc1ccc2c(c1)OCCC/C=C/CC[C@@H](C)CN(C[C@@H](O)[C@H](Cc1ccccc1)NC(=O)O[C@H]1CO[C@H]3OCC[C@H]31)S2(=O)=O	Y
19. C=CCCCCOc1cc(OC)ccc1S(=O)(=O)N(CC(C)CC=C)C[C@@H](O)[C@H](Cc1ccccc1)NC(=O)O[C@H]1CO[C@H]2OCC[C@H]21 (stereo not given in full)	N

----------
# System: Human immunodeficiency virus 1
# ASSAY PROTOCOL: Antiviral activity against multidrug-resistant HIV1 isolate C infected in PHA-stimulated human PBMC assessed as inhibition of p24 […] protein production
# Format: functional, organism-based
# CONDITION SUMMARY: Human immunodeficiency virus 1, isolate C
pIC50: −log10 of the molar value.
ASSAY METRIC: pIC50

1. CC(C)CN(C[C@@H](O)[C@H](Cc1ccccc1)NC(=O)O[C@H]1CCOC1)S(=O)(=O)c1ccc(N)cc1	6.43
2. CC(C)(C)NC(=O)[C@@H]1C[C@@H]2CCCC[C@@H]2CN1C[C@@H](O)[C@H](Cc1ccccc1)NC(=O)[C@H](CC(N)=O)NC(=O)c1ccc2ccccc2n1	7.49

----------
# TEST SYSTEM: Protease (Human immunodeficiency virus 1, UniProt Q9YQ12)
# Sequence (Q9YQ12 whole entry): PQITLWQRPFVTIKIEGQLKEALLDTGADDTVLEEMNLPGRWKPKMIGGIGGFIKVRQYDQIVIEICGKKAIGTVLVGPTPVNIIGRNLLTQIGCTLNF
With a cut-off of 0.1 nM, any Ki strictly below it is called fulfilled; any Ki meeting it or above is called not fulfilled.

1. COc1ccc2c(c1)OCCC/C=C/CC[C@@H](C)CN(C[C@@H](O)[C@H](Cc1ccccc1)NC(=O)O[C@H]1CO[C@H]3OCC[C@H]31)S2(=O)=O	not fulfilled
2. COc1ccc2c(c1)OCCC/C=C\CN(C[C@@H](O)[C@H](Cc1ccccc1)NC(=O)O[C@H]1CO[C@H]3OCC[C@H]31)S2(=O)=O	fulfilled
3. C=CCCCCN(C[C@@H](O)[C@H](Cc1ccccc1)NC(=O)O[C@H]1CO[C@H]2OCC[C@H]21)S(=O)(=O)c1ccc(OC)cc1OCC=C	not fulfilled
4. COc1ccc2c(c1)OCCC/C=C/CC[C@H](C)CN(C[C@@H](O)[C@H](Cc1ccccc1)NC(=O)O[C@H]1CO[C@H]3OCC[C@H]31)S2(=O)=O	not fulfilled
5. COc1ccc2c(c1)OC/C=C\CN(C[C@@H](O)[C@H](Cc1ccccc1)NC(=O)O[C@H]1CO[C@H]3OCC[C@H]31)S2(=O)=O	not fulfilled
6. C=CCCCCOc1cc(OC)ccc1S(=O)(=O)N(CC(C)CC=C)C[C@@H](O)[C@H](Cc1ccccc1)NC(=O)O[C@H]1CO[C@H]2OCC[C@H]21 (stereo partly drawn)	not fulfilled
7. C=CCCCCOc1cc(OC)ccc1S(=O)(=O)N(C[C@@H](C)CC=C)C[C@@H](O)[C@H](Cc1ccccc1)NC(=O)O[C@H]1CO[C@H]2OCC[C@H]21	not fulfilled
8. COc1ccc2c(c1)OC/C=C\CCCCN(C[C@@H](O)[C@H](Cc1ccccc1)NC(=O)O[C@H]1CO[C@H]3OCC[C@H]31)S2(=O)=O	fulfilled
9. COc1ccc2c(c1)OCCCCCCCC(C)(C)CN(C[C@@H](O)[C@H](Cc1ccccc1)NC(=O)O[C@H]1CO[C@H]3OCC[C@H]31)S2(=O)=O	not fulfilled
10. COc1ccc2c(c1)OCCCCCCC[C@H](C)CN(C[C@@H](O)[C@H](Cc1ccccc1)NC(=O)O[C@H]1CO[C@H]3OCC[C@H]31)S2(=O)=O	fulfilled
11. C=CCCCCOc1cc(OC)ccc1S(=O)(=O)N(CC=C)C[C@@H](O)[C@H](Cc1ccccc1)NC(=O)O[C@H]1CO[C@H]2OCC[C@H]21	not fulfilled
12. C=CCCCCOc1cc(OC)ccc1S(=O)(=O)N(C[C@@H](O)[C@H](Cc1ccccc1)NC(=O)O[C@H]1CO[C@H]2OCC[C@H]21)CC(C)(C)CC=C	not fulfilled
13. COc1ccc2c(c1)OCCCCCCCN(C[C@@H](O)[C@H](Cc1ccccc1)NC(=O)O[C@H]1CO[C@H]3OCC[C@H]31)S2(=O)=O	fulfilled
14. COc1ccc2c(c1)OCCCC/C=C\CN(C[C@@H](O)[C@H](Cc1ccccc1)NC(=O)O[C@H]1CO[C@H]3OCC[C@H]31)S2(=O)=O	fulfilled
15. C=CCCCCN(C[C@@H](O)[C@H](Cc1ccccc1)NC(=O)O[C@H]1CO[C@H]2OCC[C@H]21)S(=O)(=O)c1ccc(OC)cc1OCCC=C	not fulfilled
16. C=CCCCCN(C[C@@H](O)[C@H](Cc1ccccc1)NC(=O)O[C@H]1CO[C@H]2OCC[C@H]21)S(=O)(=O)c1ccc(OC)cc1OCCCC=C	not fulfilled
17. COc1ccc2c(c1)OCCCCCCCCCCN(C[C@@H](O)[C@H](Cc1ccccc1)NC(=O)O[C@H]1CO[C@H]3OCC[C@H]31)S2(=O)=O	not fulfilled
18. C=CCCCCOc1cc(OC)ccc1S(=O)(=O)N(CCCCC=C)C[C@@H](O)[C@H](Cc1ccccc1)NC(=O)O[C@H]1CO[C@H]2OCC[C@H]21	not fulfilled
19. COc1ccc2c(c1)OCCC/C=C\CC[C@@H](C)CN(C[C@@H](O)[C@H](Cc1ccccc1)NC(=O)O[C@H]1CO[C@H]3OCC[C@H]31)S2(=O)=O	not fulfilled
20. COc1ccc2c(c1)OCCCCCCC[C@@H](C)CN(C[C@@H](O)[C@H](Cc1ccccc1)NC(=O)O[C@H]1CO[C@H]3OCC[C@H]31)S2(=O)=O	not fulfilled
21. COc1ccc2c(c1)OCCC/C=C/CCC(C)(C)CN(C[C@@H](O)[C@H](Cc1ccccc1)NC(=O)O[C@H]1CO[C@H]3OCC[C@H]31)S2(=O)=O	not fulfilled
22. COc1ccc2c(c1)OCCCCCCN(C[C@@H](O)[C@H](Cc1ccccc1)NC(=O)O[C@H]1CO[C@H]3OCC[C@H]31)S2(=O)=O	not fulfilled
23. COc1ccc2c(c1)OCC/C=C\CN(C[C@@H](O)[C@H](Cc1ccccc1)NC(=O)O[C@H]1CO[C@H]3OCC[C@H]31)S2(=O)=O	fulfilled

Hello, the source for this data is ChEMBL document CHEMBL1156053, in case you need it.
